// growth lookup, one value per entry
System: RPMI-8226 leukemia
Test: NCI-60 one-dose screen, 48 h (100 = growth as untreated, 0 = no growth, -100 = all killed)
Conditions: 10 µM unless noted
The panel holds about 83,000 compounds, 20% with a hit somewhere; the sample as a whole holds those more often.
Numbers only here, please. The scale is %.

Previously resolved entries follow.
>  <compound>
N#Cc1c(-c2cccs2)cc(-c2cnccn2)nc1SCC(=O)c1ccc(F)cc1

>  <units>
%

>  <result_value>
97.7

$$$$
>  <compound>
O=S(=O)(Oc1ccc(-c2nnc(Nc3ccccc3)s2)cc1)C(F)(F)C(F)(F)C(F)(F)C(F)(F)C(F)(F)C(F)(F)F

>  <units>
%

>  <result_value>
105

$$$$
>  <compound>
CC(=O)Nc1cccc(Nc2nc(N[C@@H](C)c3ccccc3)c3ccccc3n2)c1

>  <units>
%

>  <result_value>
-30.9

$$$$
>  <compound>
CC(C)(C)c1ccc(C(=O)Nc2nc3ccc(O)cc3s2)cc1

>  <units>
%

>  <result_value>
22.1

$$$$
>  <compound>
O=C(Cn1c(-c2ccccc2)nc2cc(Cl)c(Cl)cc21)N=Nc1c(O)[nH]c2ccc(Cl)cc12

>  <units>
%

>  <result_value>
59

$$$$
>  <compound>
COc1cc(C2N=C(NNc3ccccc3)NC(C)=C2C(C)=O)ccc1O (centres undefined)

>  <units>
%

>  <result_value>
110

$$$$
>  <compound>
CN1CCN(c2ccc(/C=N/n3cnc4oc(-c5ccccc5)cc4c3=N)cc2)CC1

>  <units>
%

>  <result_value>
87.9

$$$$
>  <compound>
NC(=O)c1c(NC(=O)c2ccccc2C(F)(F)F)sc2c1CCC(=O)C2

>  <units>
%

>  <result_value>
-1.93

$$$$

The compound listed as `Cc1cc(C)cc(C(=O)Nc2cccc(C#Cc3cccc4[nH]nc(N)c34)c2)c1` shows growth equal to 47.4

----------
Test system: 786-0 renal
Assay: NCI-60 one-dose screen, 48 h (100 = growth as untreated, 0 = no growth, -100 = all killed)
Conditions: 10 µM unless noted
The panel holds about 83,000 compounds, 20% with a hit somewhere; the sample as a whole holds those more often.
measure: growth (%)
Numbers only here, please. The scale is %.

Previously resolved entries follow.
>  <molecule>
O=C(CCC(=O)N1CCOCC1)OCCCCCCSc1ccc([N+](=O)[O-])c2nonc12

>  <measure>
growth

>  <units>
%

>  <result_value>
-20.7

$$$$
>  <molecule>
COc1ccc(/C=N/NC2=NC3C(S2)N(C)C(=O)N3C)cc1 (stereo not given)

>  <measure>
growth

>  <units>
%

>  <result_value>
43.9

$$$$
>  <molecule>
NS(=O)(=O)c1ccc(Nc2nc(Nc3ccccc3)nc3nnc(SCC(=O)NC4CCCCC4)n23)cc1

>  <measure>
growth

>  <units>
%

>  <result_value>
103

$$$$

The molecule listed as C[C@@H]1C[C@H]2C(=O)O[C@@H](C)C(NC(=O)[C@H](Cc3cc(F)cc(F)c3)NC(=O)Nc3ccc(Cl)cc3F)C(=O)N3CCC[C@H]3C(=O)N3CCCC[C@H]3C(=O)N[C@@H](CO)C(=O)N2C1 (stereo not given in full) shows growth equal to 42.2

The molecule listed as `O=C(CCn1cc[n+](CC(=O)c2ccc(-c3ccccc3)cc2)c1)Nc1cccc2cccnc12` shows growth equal to 97.7

The molecule listed as `Cc1cc(C)c2sc(=O)n(Cc3nnc(SCCC(=O)O)o3)c2n1` shows growth equal to 104

The molecule listed as `NC(N)=Nc1ccc(Oc2cccc(Nc3ccc(Cl)c(C(F)(F)F)c3)c2)cc1` shows growth equal to 53

The molecule listed as COc1c(N2CC3CCCNC3C2)c(F)cc2c(=O)c(C(=O)N/N=C/c3ccc(Br)cc3)cn(C3CC3)c12 (stereo not given) shows growth equal to 85.3

The molecule listed as `COc1ccc([C@@H]2c3[nH]c4ccccc4c3C[C@H]3C(=O)N(C4CCN(CC5CCCCC5)CC4)CC(=O)N23)c(OC)c1` shows growth equal to 70.5

The molecule listed as `NS(=O)(=O)c1ccc(-n2cc(-c3cccc(NC(=O)c4ccc(N5CCOCC5)c(C(F)(F)F)c4)c3)nn2)cc1` shows growth equal to 33.6

The molecule listed as `CC(=O)c1cc(C(=O)N2c3ccccc3Sc3ccccc32)n2ccc3ccccc3c12` shows growth equal to 38.4

The molecule listed as `Cc1c(F)cc(C(N)=O)cc1NCC(=O)Nc1ccc([N+](=O)[O-])cc1` shows growth equal to 87.5

The molecule listed as `CCCCCc1ccc(S(=O)(=O)Nc2cccc(-c3csc(NC(=O)CNCCN(C)C)n3)c2)cc1` shows growth equal to 61.6

The molecule listed as COc1cc2nc(Cl)nc(Nc3cccc(C4=Nc5c(N)nc(N)nc5NC(c5ccc(Br)cc5)C4)c3)c2cc1OC (stereo not given) shows growth equal to 64.7

The molecule listed as `CCN(CC)CCn1c2ccc(O)cc2c2sc3cc(OC)ccc3c(=O)c21` shows growth equal to 33.3

The molecule listed as `O=c1c2ccccc2nc(COc2ccccc2)n1NS(=O)(=O)c1ccc(Cl)cc1` shows growth equal to 107

The molecule listed as `CC(=O)Nc1cccc(Nc2nc(N[C@H](C)c3ccccc3)c3ccccc3n2)c1` shows growth equal to 54.9

The molecule listed as `O=C(c1ccc(O)cc1)[C@@H]1CN[C@@]2(C(=O)Nc3ccccc32)[C@H]1c1ccc(F)cc1` shows growth equal to 110

The molecule listed as `N#Cc1c(Nc2ccccc2)nn2c(-c3ccc([N+](=O)[O-])cc3)ccnc12` shows growth equal to 98.3

The molecule listed as `CNC(=O)c1cc(N2CCc3cc(NC(=O)Nc4ccc(Cl)c(C(F)(F)F)c4)ccc32)ccn1` shows growth equal to 49.7

The molecule listed as `COCCNc1ccc2ncc(C#Cc3cncc(C(=O)Nc4ccc(CN5CCN(C)CC5)c(C(F)(F)F)c4)c3)n2n1` shows growth equal to -64.1

The molecule listed as `C=CCn1c(SCC(=O)Nc2ccc(C(=O)/C=C/c3ccc(Br)cc3)cc2)nnc1-c1c[nH]c2ccccc12` shows growth equal to 102

The molecule listed as `CCn1c(SCC(=O)Nc2cccc(C(=O)/C=C/c3cc(OC)c(OC)c(OC)c3)c2)nc2ccccc2c1=O` shows growth equal to 30.2

The molecule listed as `COc1cc(OC)c(/C=C/S(=O)(=O)Cc2ccc(OC)c(NCC(=O)NO)c2)c(OC)c1` shows growth equal to 28.1

The molecule listed as `NS(=O)(=O)c1ccc(Nc2nc(N/N=C/c3ccc(Cl)cc3)nc(Nc3ccccc3)n2)cc1` shows growth equal to 40.3

The molecule listed as `COc1ccc(-c2nc(C(Cl)Cl)nc3cc(-c4ccccc4)nn23)cc1` shows growth equal to 68.8

The molecule listed as `O=C(NCCn1ccnc1)c1ccc(-c2nc3ccc4[nH]ncc4c3c3c2CCCC3)cc1` shows growth equal to 75.6

The molecule listed as `CN(C)CCN(C)c1ccc2ncc(C#Cc3cncc(C(=O)Nc4ccc(CN5CCN(C)CC5)c(C(F)(F)F)c4)c3)n2n1` shows growth equal to 90.9

The molecule listed as `COc1cc2oc(-c3cccc(N)c3)cc(=O)c2c(OC)c1OC` shows growth equal to 94.1

The molecule listed as `O=C(Cn1c(-c2ccccc2)nc2cc(Cl)c(Cl)cc21)N=Nc1c(O)[nH]c2ccc(Cl)cc12` shows growth equal to 96.2

----------
Tested on: NCI-H23 lung
Experiment: NCI-60 one-dose screen, 48 h (100 = growth as untreated, 0 = no growth, -100 = all killed)
Conditions: 10 µM unless noted
About 83,000 compounds went through this panel and 20% of them were active in at least one assay; those are over-represented in the sample as a whole.
measure: growth (%)
Numbers only here, please. The scale is %.

Previously resolved entries follow.
>  <compound>
CCc1nn2c(C)cc(C)nc2c1Cc1ccc(/C=C/CN2CCN(CCOCCOCCN3CCN(C/C=C/c4ccc(Cc5c(CC)nn6c(C)cc(C)nc56)cc4)CC3)CC2)cc1

>  <units>
%

>  <growth>
26.2

$$$$
>  <compound>
O=C1CCCc2nc(Nc3ccc(S(=O)(=O)Nc4ccc([N+](=O)[O-])cc4)cc3)ncc21

>  <units>
%

>  <growth>
102

$$$$
>  <compound>
COc1ccc(CCN2C(=O)CSC2=S)cc1

>  <units>
%

>  <growth>
103

$$$$
>  <compound>
O=C(c1ccc(O)c(C(=O)N2Cc3ccc(OCCC[P+](c4ccccc4)(c4ccccc4)c4ccccc4)cc3C2)c1)N1Cc2cccc(F)c2C1

>  <units>
%

>  <growth>
87.3

$$$$
>  <compound>
CN1CCC(n2cc(Nc3ncc4c(=O)n(-c5c(Cl)cccc5Cl)cc(Br)c4n3)cn2)CC1

>  <units>
%

>  <growth>
8.53

$$$$
>  <compound>
ClC(Cl)c1nc(-c2ccco2)n2nc(-c3ccccc3)cc2n1

>  <units>
%

>  <growth>
49.8

$$$$
>  <compound>
COc1ccc(S(=O)(=O)NCCCNc2nccc(-c3cn(C(C)(C)C)nc3-c3ccc(Cl)c(OC)c3)n2)cc1

>  <units>
%

>  <growth>
87.7

$$$$
>  <compound>
O=c1c2ccccc2nc(COc2ccccc2)n1NS(=O)(=O)c1ccc(Cl)cc1

>  <units>
%

>  <growth>
82.8

$$$$
>  <compound>
COc1ccccc1-n1cc(C#N)c(N)c1C(=O)c1ccc(C)cc1

>  <units>
%

>  <growth>
89.4

$$$$
>  <compound>
CC(=O)N(C)C1CCc2c(sc(NC(=O)c3ccc(C(C)(C)C)cc3)c2C(N)=O)C1 (configuration not stated)

>  <units>
%

>  <growth>
85.3

$$$$

The compound listed as Cc1ccc(NC(=O)N[C@@H](Cc2cc(F)cc(F)c2)C(=O)NC2C(=O)N3C[C@H](O)C[C@H]3C(=O)N3CCCC[C@H]3C(=O)N[C@@H](CO)C(=O)N3C[C@H](C)C[C@H]3C(=O)O[C@H]2C)c(F)c1 (some centres not stated) shows growth equal to 28.2
